# assayedTarget: GST-JAK2(808-1132) (Homo sapiens)
# Construct: GST-JAK2(808-1132); purchased Invitrogen (Carlsbad, USA) #4288
# Sequence (O60674 808-1132): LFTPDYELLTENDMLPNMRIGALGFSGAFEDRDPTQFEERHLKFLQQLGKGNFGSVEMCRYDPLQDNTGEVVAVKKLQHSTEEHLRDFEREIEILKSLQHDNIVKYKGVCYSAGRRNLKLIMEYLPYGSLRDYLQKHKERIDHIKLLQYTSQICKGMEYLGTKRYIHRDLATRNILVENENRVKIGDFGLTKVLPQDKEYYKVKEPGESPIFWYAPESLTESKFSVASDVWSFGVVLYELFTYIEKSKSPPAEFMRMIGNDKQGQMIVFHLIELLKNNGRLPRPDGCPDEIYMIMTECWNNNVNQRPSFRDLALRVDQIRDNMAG
# experimentNotes: EPK JAK-family kinases profiling assay (Caliper mobility shift), JAK2
# Format: biochemical
# reportedConditions: ATP 20 μM, 1.8 nM kinase
measuredParameter: IC50 (nM)

- compound: "c1cc(-c2ccc(CN3CCOCC3)cc2)c2nc(-c3cnn(C4CCNCC4)c3)cnc2c1 [Example 150]"
  IC50, nM: 30
- compound: "CCOc1ccc(-c2cnc3cccc(-c4ccc(CC(=O)N5CCS(=O)(=O)CC5)cc4)c3n2)cc1OCC [Example 27]"
  IC50, nM: 34
- compound: "Cc1cc(-c2cnc3cccc(-c4ccc(CN5CCOCC5)c(F)c4)c3n2)ccc1C(=O)N1CCOCC1 [Example 58]"
  IC50, nM: 11
- compound: "CCS(=O)(=O)c1ccc(-c2cccc3ncc(-c4ccc(OCCOC)c(OC)c4)nc23)cc1 [Example 47]"
  IC50, nM: 38
- compound: "CCS(=O)(=O)c1ccc(-c2cccc3ncc(-c4ccc(OCCN5CCOCC5)c(OC)c4)nc23)cc1 [Example 33]"
  IC50, nM: 32
- compound: "CCOc1ccc(-c2cnc3cccc(-c4ccc(CS(C)(=O)=O)cc4)c3n2)cc1OCC [Example 25]"
  IC50, nM: 42
